The reported numbers originate from patent US4791139A.

# Tested on: Musca domestica (houseflies - adults)
# protocol-details: Knockdown test, houseflies - adults (MD/KD), Cotton wool/sugar
# Assay type: in vivo
# condition-label: 500 ppm, 4 hours, read-out: MD/KD grading of knockdown
endpoint-name: pest or weed control at 500 ppm

Worked cases, answers included:
FC(F)(F)C(=CCCc1cccc(Oc2ccccc2)c1)c1ccc(Br)cc1 [Compound 39] = < 50%
Fc1ccc(C=CC=C(c2ccc(OC(F)(F)F)cc2)C(F)(F)Cl)cc1Oc1ccccc1 [Compound 76] = < 50%
COCc1ccc(C(CCCc2cccc(Oc3ccccc3)c2)C(F)(F)F)cc1 (racemic) [Compound 45] = 80 to 100%
CCOc1c(F)cc(C(CCCc2ccc(F)c(Oc3ccccc3)c2)C(F)(F)F)cc1F (racemic) [Compound 64] = 80 to 100%

Would you please give the reported pest or weed control at 500 ppm of COc1ccc(C(CCCc2cccc(Oc3ccccc3)c2)C(F)(F)F)cc1 (racemic) [Compound 49] with Musca domestica (houseflies - adults)?
80 to 100%

Would you please give the reported pest or weed control at 500 ppm of FC(F)(F)C(CCCc1cccc(Oc2ccccc2)c1)c1ccc2c(c1)OCO2 (centres unmarked) [Compound 40] with Musca domestica (houseflies - adults)?
80 to 100%

Would you please give the reported pest or weed control at 500 ppm of COCc1ccc(C(=CCCc2cccc(Oc3ccccc3)c2)C(F)(F)F)cc1 [Compound 44] with Musca domestica (houseflies - adults)?
< 50%

Would you please give the reported pest or weed control at 500 ppm of FC(F)C(CCCc1cccc(Oc2ccccc2)c1)c1ccc(OC(F)(F)F)cc1 (racemic) [Compound 83] with Musca domestica (houseflies - adults)?
80 to 100%

----------
# Test system: Heliothis virescens (tobacco budworm - larvae)
# protocol-details: Residual test, tobacco budworm - larvae (HV), Cotton leaf
# Format: in vivo
# condition-label: 72 h, read-out: HV grading of mortality
Below, each of the compounds is paired with its reported mortality at 250 ppm value.

CCOc1ccc(C(C/C=C\c2cccc(Oc3ccccc3)c2)C(F)(F)F)cc1 (stereo not shown) [Compound 35] = 80 to 100%

Specify reported mortality at 250 ppm for the compound shown: Fc1ccc(C(=CCCc2cccc(Oc3ccccc3)c2)C(F)(F)F)cc1 [Compound 47]
< 50%

Specify reported mortality at 250 ppm for the compound shown: FC(F)(F)Oc1ccc(C(F)(CCCc2cccc(Oc3ccccc3)c2)C(F)(F)F)cc1 (racemic) [Compound 60]
80 to 100%

Specify reported mortality at 250 ppm for the compound shown: CCOc1ccc(C(=CCCc2cccc(Oc3ccccc3)c2)C(F)(F)C(F)(F)F)cc1 [Compound 10]
< 50%

----------
Below, each of the compounds is paired with its reported pest or weed control at 250 ppm value.
# System: Musca domestica (houseflies - adults)
# protocol-details: Knockdown test, houseflies - adults (MD/KD), Cotton wool/sugar
# Type: in vivo
# condition-label: 250 ppm, 4 hours, read-out: MD/KD grading of knockdown

Worked cases, answers included:
FC(F)(F)Oc1ccc(C(CCCc2cccc(Oc3ccccc3)c2)C(F)(F)F)cc1 (racemic) [Compound 9] = 80 to 100%
CC(C)(C)c1ccc(C(=CCCc2cccc(Oc3ccccc3)c2)C(F)(F)F)cc1 [Compound 6] = < 50%
FC(F)(F)C(=CCCc1cccc(Oc2ccccc2)c1)c1ccc(C(F)(F)F)cc1 [Compound 15] = < 50%
CCOc1ccc(C(CC=Cc2cccc(Oc3ccccc3)c2)C(F)(F)F)cc1 (centres unmarked) [Compound 31] = 80 to 100%
FC(F)(F)C(=CCCc1cccc(Oc2ccccc2)c1)c1ccc2c(c1)CCC2 [Compound 48] = < 50%

Would you please give the reported pest or weed control at 250 ppm of FC(F)(F)C(CCCc1cccc(Oc2ccccc2)c1)c1ccc2c(c1)CCC2 (racemic) [Compound 52] with Musca domestica (houseflies - adults)?
< 50%

Would you please give the reported pest or weed control at 250 ppm of CCOc1ccc(/C(=C\C=C\c2ccc(F)c(Oc3ccccc3)c2)C(F)(F)F)cc1 [Compound 36] with Musca domestica (houseflies - adults)?
80 to 100%

Would you please give the reported pest or weed control at 250 ppm of FC(F)(F)c1ccc(C(CCCc2cccc(Oc3ccccc3)c2)C(F)(F)F)cc1 (racemic) [Compound 16] with Musca domestica (houseflies - adults)?
80 to 100%
